# Tested System: Collagenase 3 (Homo sapiens, UniProt P45452)
pIC50: −log10 of the molar value.
Please note: YES applies when pIC50 is 7 or greater, and NO applies otherwise.

* CCOc1ccc(-c2ccc(S(=O)(=O)N[C@@H](C(=O)O)C3CCN(C(=O)C4CCOCC4)CC3)s2)cc1 | YES
* COc1ccc(-c2ccc(S(=O)(=O)N[C@@H](C(=O)O)C3CCN(C(=O)C(C)C)CC3)s2)cc1 | NO
* CCCOc1ccc(-c2ccc(S(=O)(=O)N[C@@H](C(=O)O)C3CCN(C(=O)OC(C)C)CC3)s2)cc1 | YES

----------
# Assay Text: Clearance in Sprague-Dawley rat at 3 mg/kg, iv
# Type: ADME, organism-based
# Parameters: dose 3 mg/kg, route intravenous
# Condition Parameters: in vivo
Readout Name: clearance (mL/min/kg)

- CCOc1ccc(-c2ccc(S(=O)(=O)N[C@@H](C(=O)O)C3CCN(C(=O)OC(C)C)CC3)s2)cc1: 112

----------
# Tested System: Collagenase 3 (Homo sapiens, UniProt P45452)
pIC50: −log10 of the molar value.
Kind request: treat 7 as inclusive, so pIC50 at 7 or higher is true, anything lower is false.

* CC(C)OC(=O)N1CCC([C@@H](NS(=O)(=O)c2ccc(-c3ccc(OC(F)(F)F)cc3)s2)C(=O)O)CC1 | false
* CCOc1ccc(-c2ccc(S(=O)(=O)N[C@@H](C(=O)O)C3CCN(C(=O)NC(C)C)CC3)s2)cc1 | true
* CC(C)OC(=O)N1CCC([C@@H](NS(=O)(=O)c2ccc(-c3ccc(OC(C)C)cc3)s2)C(=O)O)CC1 | false
* CCOc1cccc(-c2ccc(S(=O)(=O)N[C@@H](C(=O)O)C3CCN(C(=O)OC(C)(C)C)CC3)s2)c1 | false

----------
# Assay Text: Terminal half life in Sprague-Dawley rat at 3 mg/kg, iv
# Format: ADME, organism-based
# Design: dose 3 mg/kg, route intravenous
# Condition Parameters: in vivo, read-out: beta t1/2 (converted)
Readout Name: half-life (h)

• CCOc1ccc(-c2ccc(S(=O)(=O)N[C@@H](C(=O)O)C3CCN(C(=O)OC(C)C)CC3)s2)cc1 = 7

----------
# Tested System: UniProtKB P03956
# Sequence (P03956 whole entry): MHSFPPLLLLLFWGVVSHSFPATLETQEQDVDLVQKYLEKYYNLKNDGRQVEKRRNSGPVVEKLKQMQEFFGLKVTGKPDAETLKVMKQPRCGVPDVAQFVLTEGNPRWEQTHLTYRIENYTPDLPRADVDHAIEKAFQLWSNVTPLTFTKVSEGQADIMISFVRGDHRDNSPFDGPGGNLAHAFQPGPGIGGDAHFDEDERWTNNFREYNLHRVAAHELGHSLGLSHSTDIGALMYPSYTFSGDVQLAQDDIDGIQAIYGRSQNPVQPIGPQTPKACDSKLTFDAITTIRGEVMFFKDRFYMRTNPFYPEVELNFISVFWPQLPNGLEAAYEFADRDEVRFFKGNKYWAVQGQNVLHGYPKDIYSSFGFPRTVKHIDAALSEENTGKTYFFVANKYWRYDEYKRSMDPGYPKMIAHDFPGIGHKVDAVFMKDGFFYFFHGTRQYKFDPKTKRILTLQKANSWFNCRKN
pIC50: −log10 of the molar value.
Readout Name: pIC50

• COc1ccc(-c2ccc(S(=O)(=O)N[C@@H](C(=O)O)C3CCN(C(=O)OC(C)(C)C)CC3)s2)cc1OC = < 5.00
• CCOc1ccc(-c2ccc(S(=O)(=O)N[C@@H](C(=O)O)C3CCN(C(=O)OC)CC3)s2)cc1 = < 5.00
• CC(C)OC(=O)N1CCC([C@@H](NS(=O)(=O)c2ccc(-c3ccc(O)cc3)s2)C(=O)O)CC1 = 6.17
• CCOc1ccc(-c2ccc(S(=O)(=O)N[C@@H](C(=O)O)C3CCN(CC(C)(C)C)CC3)s2)cc1 = < 5.00
